Target: Androgen receptor (Rattus norvegicus)
Sequence (P15207 whole entry): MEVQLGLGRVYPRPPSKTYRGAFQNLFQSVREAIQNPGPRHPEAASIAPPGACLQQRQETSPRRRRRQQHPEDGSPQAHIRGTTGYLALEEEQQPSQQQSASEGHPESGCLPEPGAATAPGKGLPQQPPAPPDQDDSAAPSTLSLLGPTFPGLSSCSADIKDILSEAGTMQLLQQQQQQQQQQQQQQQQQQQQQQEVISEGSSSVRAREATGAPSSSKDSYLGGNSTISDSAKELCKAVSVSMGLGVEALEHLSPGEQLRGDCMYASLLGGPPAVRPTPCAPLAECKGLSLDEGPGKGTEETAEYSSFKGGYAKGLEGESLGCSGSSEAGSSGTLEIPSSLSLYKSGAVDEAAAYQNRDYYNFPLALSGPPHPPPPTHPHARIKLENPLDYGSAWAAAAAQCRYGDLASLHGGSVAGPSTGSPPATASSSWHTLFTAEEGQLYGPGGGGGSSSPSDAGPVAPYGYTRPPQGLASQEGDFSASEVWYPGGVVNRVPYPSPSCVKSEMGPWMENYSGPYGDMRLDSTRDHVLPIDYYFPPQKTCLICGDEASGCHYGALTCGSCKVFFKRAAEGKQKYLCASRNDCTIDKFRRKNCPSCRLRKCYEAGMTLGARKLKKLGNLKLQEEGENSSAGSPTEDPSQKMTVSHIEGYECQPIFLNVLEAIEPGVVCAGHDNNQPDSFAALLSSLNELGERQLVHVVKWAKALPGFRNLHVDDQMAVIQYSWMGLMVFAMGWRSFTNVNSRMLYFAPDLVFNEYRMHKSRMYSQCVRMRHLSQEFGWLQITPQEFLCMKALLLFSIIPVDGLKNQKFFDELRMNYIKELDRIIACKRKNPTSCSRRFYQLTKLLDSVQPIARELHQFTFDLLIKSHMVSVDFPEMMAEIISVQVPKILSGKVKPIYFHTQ

| moleculeSmiles | Ki [nM] |
| --- | --- |
| CC1(C)C(=O)N(c2ccc(C#N)c(C(F)(F)F)c2)C(=S)N1CCCCO | 2.23 |
| CC1(C)C(=O)N(c2ccc(C#N)c(I)c2)C(=S)N1CCCCO | 0.71 |
| C[C@@H]1CC2=CC(=O)CC[C@@H]2[C@H]2CC[C@@]3(C)[C@@H](CC[C@]3(C)O)[C@@H]21 | 0.75 |
